# System: Candida albicans
# Procedure Text: Binding affinity to Candida albicans CaCdr1p expressed in yeast AD1-8u
The source made the active and inactive calls. No rule for the calls is given here.
Attribute Measured: Activity

Some solved cases for reference:
Compound | Assayed System | Activity
CCC[C@@H]1C[C@@H](C(=O)N[C@@H]([C@H]2O[C@H](SC)[C@H](O)[C@@H](O)[C@H]2O)[C@@H](C)O)N(C)C1 | Candida albicans | inactive
OC(Cn1cncn1)(Cn1cncn1)c1ccc(F)cc1F | Candida albicans | Active
CCCCNC(=O)n1c(NC(=O)OC)nc2ccccc21 | Candida albicans | Active
C[C@]12CC[C@@H]3c4ccc(OS(=O)(=O)O)cc4CC[C@H]3[C@@H]1CCC2=O | Candida albicans | inactive

Item CCCCCCCCCCCC(=O)OCCN(C)C has what recorded Activity?
Active

Item c1ccc(C(c2ccccc2)(c2ccccc2)c2ncc[nH]2)cc1 has what recorded Activity?
Active

Item COc1cccc2c1C(=O)c1c(O)c3c(c(O)c1C2=O)C[C@@](O)(C(C)=O)C[C@@H]3O[C@H]1C[C@H](N)[C@H](O)[C@H](C)O1 has what recorded Activity?
Active

Item N#CC(C#N)=NNc1cccc(Cl)c1 [CARBONYL CYANIDE M-CHLOROPHENYLHYDRAZONE] has what recorded Activity?
inactive

Item C[C@@H]1O[C@@H](O[C@H]2C[C@@H](O)[C@]3(CO)[C@H]4[C@H](O)C[C@]5(C)[C@@H](C6=CC(=O)OC6)CC[C@]5(O)[C@@H]4CC[C@]3(O)C2)[C@H](O)[C@H](O)[C@H]1O has what recorded Activity?
inactive

Item O=C1c2c(O)ccc(O)c2C(=O)c2c(NCCNCCO)ccc(NCCNCCO)c21 has what recorded Activity?
inactive

Item COc1ccc2cc3[n+](cc2c1OC)CCc1cc2c(cc1-3)OCO2.[Cl-] [BERBERINE CHLORIDE] has what recorded Activity?
Active

Item CC/C(=C(\c1ccccc1)c1ccc(OCCN(C)C)cc1)c1ccccc1 has what recorded Activity?
Active

Item CCC(=O)Nc1ccc(Cl)c(Cl)c1 has what recorded Activity?
Active

Item COc1ccc2c3c([nH]c2c1)[C@H](C=C(C)C)N1C(=O)[C@@H]2CCCN2C(=O)[C@@H]1C3 has what recorded Activity?
inactive

Item C[C@@H]1C[C@H]2[C@@H]3CCC4=CC(=O)C=C[C@]4(C)[C@@]3(F)[C@@H](O)C[C@]2(C)[C@@]1(O)C(=O)CO has what recorded Activity?
Active

====

# Tested on: Candida albicans
# Procedure Text: Binding affinity to Candida albicans CaCdr1p expressed in yeast AD1-8u
Active and inactive are the calls of the source. No rule for the calls is given here.
Assign a class; possible classes are active, inactive

# outcome recorded in this test, key = Clc1ccccc1C(c1ccccc1)(c1ccccc1)n1ccnc1
active

# outcome recorded in this test, key = CCCCCCCCCCCC[N+](C)(C)CCCS(=O)(=O)[O-]
inactive

# outcome recorded in this test, key = CC(=O)Nc1c2sscc-2n(C)c1=O
inactive

# outcome recorded in this test, key = O=[N+]([O-])c1cc[n+]([O-])c2ccccc12 [4-NITROQUINOLINE-1-OXIDE]
active

# outcome recorded in this test, key = O=P1(N(CCCl)CCCl)NCCCO1 (stereo unspecified) [CYCLOPHOSPHAMIDE ANHYDROUS]
inactive

# outcome recorded in this test, key = C[C@@H]1C[C@@H]([C@H](O)CC2CC(=O)NC(=O)C2)C(=O)[C@@H](C)C1 [CYCLOHEXIMIDE]
active

====

# Test system: Candida albicans
# Procedure Text: Binding affinity to Candida albicans CaMdr1p expressed in yeast AD1-8u
Calls of active or inactive are those of the source. No rule for the calls is given here.
Assign a class; possible classes are 1 = active, -1 = inactive

# outcome recorded in this test, key = COc1ccc2c(c1)c(CC(=O)O)c(C)n2C(=O)c1ccc(Cl)cc1
-1

# outcome recorded in this test, key = CCCCCCCCCCCCn1cncn1
-1

# outcome recorded in this test, key = CC(=O)[C@H]1CC[C@H]2[C@@H]3CCC4=CC(=O)CC[C@]4(C)[C@H]3CC[C@]12C
-1

# outcome recorded in this test, key = NC[C@H]1O[C@H](O[C@H]2[C@H](O)[C@@H](O[C@H]3O[C@H](CO)[C@@H](O)[C@H](N)[C@H]3O)[C@H](N)C[C@@H]2N)[C@H](O)[C@@H](O)[C@@H]1O
1

# outcome recorded in this test, key = C[C@@H]1C[C@@H]([C@H](O)CC2CC(=O)NC(=O)C2)C(=O)[C@@H](C)C1 [CYCLOHEXIMIDE]
1

# outcome recorded in this test, key = COc1cc([C@@H]2c3cc4c(cc3[C@@H](O[C@@H]3O[C@@H]5CO[C@@H](C)O[C@H]5[C@H](O)[C@H]3O)[C@H]3COC(=O)[C@H]23)OCO4)cc(OC)c1O [ETOPOSIDE]
1

# outcome recorded in this test, key = O=C1c2c(O)ccc(O)c2C(=O)c2c(NCCNCCO)ccc(NCCNCCO)c21
1

# outcome recorded in this test, key = CC/N=c1\cc2oc3cc(NCC)c(C)cc3c(-c3ccccc3C(=O)OCC)c-2cc1C.Cl [RHODAMINE 6G HYDROCHLORIDE]
-1

# outcome recorded in this test, key = CCCCCCCCCCCC(=O)OCCN(CC)CC
1

# outcome recorded in this test, key = CCC(=O)Nc1ccc(Cl)c(Cl)c1
1

# outcome recorded in this test, key = CN(Cc1cnc2nc(N)nc(N)c2n1)c1ccc(C(=O)N[C@@H](CCC(=O)O)C(=O)O)cc1 [METHOTREXATE]
1

# outcome recorded in this test, key = c1c[nH]cn1
-1

# outcome recorded in this test, key = COc1cccc2c1C(=O)c1c(O)c3c(c(O)c1C2=O)C[C@@](O)(C(=O)CO)C[C@@H]3O[C@H]1C[C@H](N)[C@H](O)[C@H](C)O1
1

# outcome recorded in this test, key = CC(=O)O[C@H]1C(=O)[C@@]2(C)[C@H]([C@H](OC(=O)c3ccccc3)[C@]3(O)C[C@H](OC(=O)[C@H](O)[C@@H](NC(=O)c4ccccc4)c4ccccc4)C(C)=C1C3(C)C)[C@]1(OC(C)=O)CO[C@@H]1C[C@@H]2O
-1

# outcome recorded in this test, key = COC(=O)c1ccccc1-c1c2ccc(=N)cc-2oc2cc(N)ccc12.Cl
-1

====

# Test system: Candida albicans
# Procedure Text: Binding affinity to Candida albicans CaCdr1p expressed in yeast AD1-8u
Activity calls are given as the source filed them. No rule for the calls is given here. Numbered stars: 1 amine (or outer) side, 2 acyl side, 3 side chain; on linkers, the order of the positions; unused ones are H or OH. Bridge positions count the residues as written; N and C are the ends. Square brackets hold non-standard residues; d marks the D form. Peptide text beside a SMILES is read from it. I, II: the chains in the order shown. Actinocin(1to9) = Cc1c2oc3c(C)ccc(C(=O)[*:2])c3nc-2c(C(=O)[*:1])c(N)c1=O; NMeV = CN[C@H](C(=O)O)C(C)C; Sar = CNCC(=O)O
Assign a class; possible classes are class 1 for active, class 0 for inactive

# outcome recorded in this test, key = CCCCCCCCCCCCn1cncn1
class 1

# outcome recorded in this test, key = CN(Cc1cnc2nc(N)nc(N)c2n1)c1ccc(C(=O)N[C@@H](CCC(=O)O)C(=O)O)cc1 [METHOTREXATE]
class 0

# outcome recorded in this test, key = COc1ccc(C[C@H]2NC[C@H](O)[C@H]2OC(C)=O)cc1
class 1

# outcome recorded in this test, key = Clc1ccc(COC(Cn2ccnc2)c2ccc(Cl)cc2Cl)c(Cl)c1 (centres undefined)
class 1

# outcome recorded in this test, key = O=c1c(O)c(-c2ccc(O)c(O)c2)oc2cc(O)cc(O)c12
class 0

# outcome recorded in this test, key = COc1ccc2c(c1)c(CC(=O)O)c(C)n2C(=O)c1ccc(Cl)cc1
class 0

# outcome recorded in this test, key = Cc1c2oc3c(C)ccc(C(=O)N[C@@H]4C(=O)N[C@H](C(C)C)C(=O)N5CCC[C@H]5C(=O)N(C)CC(=O)N(C)[C@@H](C(C)C)C(=O)O[C@@H]4C)c3nc-2c(C(=O)N[C@@H]2C(=O)N[C@H](C(C)C)C(=O)N3CCC[C@H]3C(=O)N(C)CC(=O)N(C)[C@@H](C(C)C)C(=O)O[C@@H]2C)c(N)c1=O [DACTINOMYCIN] (I: T[dV]P[Sar][NMeV] / II: T[dV]P[Sar][NMeV]; ester I:1-I:C, II:1-II:C; linker I:N-II:N via Actinocin(1to9))
class 0

# outcome recorded in this test, key = CCCCCCCCCCCC(=O)OCCN(CC)CC
class 0

# outcome recorded in this test, key = Oc1cccc2cccnc12
class 0

# outcome recorded in this test, key = CO[C@H]1/C=C/O[C@@]2(C)Oc3c(C)c(O)c4c(O)c(c(/C=N/N5CCN(C)CC5)c(O)c4c3C2=O)NC(=O)/C(C)=C\C=C\[C@H](C)[C@H](O)[C@@H](C)[C@@H](O)[C@@H](C)[C@H](OC(C)=O)[C@@H]1C
class 0

# outcome recorded in this test, key = CCC(C)n1ncn(-c2ccc(N3CCN(c4ccc(OCC5COC(Cn6cncn6)(c6ccc(Cl)cc6Cl)O5)cc4)CC3)cc2)c1=O (centres undefined)
class 1

# outcome recorded in this test, key = COCCOC(=O)C1=C(C)NC(C)=C(C(=O)OC(C)C)C1c1cccc([N+](=O)[O-])c1 (centres undefined)
class 0

# outcome recorded in this test, key = CCCCCCCCCCCCCC(=O)OCCN(C)C
class 0

# outcome recorded in this test, key = O=C(N[C@H](CO)[C@H](O)c1ccc([N+](=O)[O-])cc1)C(Cl)Cl
class 1
